target: T1, hCD137 (FXa digested) (human, UniProt Q07011 24-186)
T1 construct: Factor Xa digestion and Protein A removed the Fc; also called human CD137 extracellular domain
T1 sequence (Q07011 other isoform, or with tags, fused parts or gaps limits assumed): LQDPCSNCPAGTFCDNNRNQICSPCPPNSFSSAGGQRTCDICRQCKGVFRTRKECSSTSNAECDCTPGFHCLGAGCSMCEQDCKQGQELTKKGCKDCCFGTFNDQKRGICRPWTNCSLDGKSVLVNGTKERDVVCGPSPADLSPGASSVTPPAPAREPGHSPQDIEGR
experiment.notes: SPR, 1 mM AMP
Exercise: for every item that follows, state its recorded binding amount.
Give bare numbers, in RU.

These solved cases illustrate the format of a correct answer.
Q. Query: binding amount; subject: dBBAT021-P253 (antibody, human IgG1, lambda, V domains shown) VH: EVQLVESGGDLVKPGGGLRLSCAASGFTFSSYTMNWVRQAPGKGLEWVSSISSRSNYRDYADSVKGRFTISRDNAKNSLYLQMNSLRAEDTAVYYCARYGGKNILNWVFDYWGQGTLVTVSS VL: QSALTQPPSASGSPGQTVTISCTGTSSDVGFYNYVSWYQQHPGKAPKLMIYEVSKRPSGVPDRFSGSKSGNTASLTVSGLQAEDEADYFCSSYSSDTHVGFGGGTKLTVLG
A. 5.7

Q. Query: binding amount; subject: dBBAT042-P253 (antibody, human IgG1, lambda, V domains shown) VH: EVQLVESGGDLVKPGGGLRLSCAASGFTFSSHTMNWVRQAPGKGLEWISSISSRSNYKSYADSVKGRFTISRDNAKNSLYLQMNSLRAEDTAVYYCARYGHKNMHNWVFDYWGQGTLVTVSS VL: QSALTQPPSASGSPGQTVTISCTGTSSDVGFYNYVSWYQQHPGKAPKLMIYEVSKRPSGVPDRFSGSKSGNTASLTVSGLQAEDEADYFCSTYRYDQNVAFGGGTKLTVLG
A. 7.8

Q. Query: binding amount; subject: dBBAT112-P253 (antibody, human IgG1, lambda, V domains shown) VH: EVQLVESGGDLVKPGGGLRLSCAASGFTFSTYTMNWVRQAPGKGLEWVSSISSRSNYKFYADSVKGRFTISRDNAKNSLYLQMNSLRAEDTAVYYCARFGVKNNMNWVFDYWGQGTLVTVSS VL: QSALTQPPSASGSPGQTVTISCTGTSSDVGFYNYVSWYQQHPGKAPKLMIYEVSKRPSGVPDRFSGSKSGNTASLTVSGLQAEDEADYFCSSYEYIESVLFGGGTKLTVLG
A. 6.5

Pending binder:
Q. Query: binding amount; subject: dBBAT037-P253 (antibody, human IgG1, lambda, V domains shown) VH: EVQLVESGGDLVKPGGGLRLSCAASGFTFSGYTMNWVRQAPGKGLEWVSSISSRSNYIDYADSVKGRFTISRDNAKNSLYLQMNSLRAEDTAVYYCARFGLKNSLNWVFDYWGQGTLVTVSS VL: QSALTQPPSASGSPGQTVTISCTGTSTDVGFYNYVSWYQQHPGKAPKLMIYETSKRPSGVPDRFSGSKSGNTASLTVSGLQAEDEADYFCSSYSGASILLFGGGTKLTVLG
A. 21.7

Data provenance is patent US20230272099A1.
